Listed next: entries and their corresponding TGI.
# Tested on: SNB-19 CNS
# methodSummary: NCI tumour cell line growth inhibition, 48 h

>  <compound>
N=C(N)C1CN(CCc2c[nH]c3ccccc23)C(=O)NC1=O (stereo unspecified)

>  <TGI>
> 100 µM

$$$$
>  <compound>
CCOC(=O)c1cnc2c(ccc3[nH]n(C)nc32)c1=O

>  <TGI>
> 100 µM

$$$$
>  <compound>
COc1cc(C(=O)N2CCN(C=O)C2=S)cc(OC)c1OC

>  <TGI>
70.4 µM

$$$$
>  <compound>
CO[C@@]12C[C@@H](C)C3=CCC(C)=C3CC1=C(C)C(=O)O2

>  <TGI>
> 100 µM

$$$$
>  <compound>
O=C(N/N=C(\c1ccccc1)c1ccccn1)NC1CCCCC1

>  <TGI>
> 100 µM

$$$$
>  <compound>
CN1C(=O)c2ccccc2OC12C=Cc1c(ccc3ccccc13)O2 (stereo unspecified)

>  <TGI>
> 59.4 µM

$$$$
